- TEST DESCRIPTION: Mouse plasma ciclopirox pharmacokinetics after 30 mg/kg oral dose
- Type: in vivo
- STATED CONDITIONS: mouse, in vivo, po, 30 mg/kg, Plasma Ciclopirox Concentrations, Mean
- Method: The plasma ciclopirox (i.e., CPX) concentrations in (ng/mL) were determined following bolus administration of ciclopirox-POM prodrug at a 30 mg/kg orally in a mouse model. Time points where data collected are shown in Table 3 to be at 5, 15, 30, 60, 90, 120, 180, and 240 minutes along with the data. […] The oral formulation is a composition having Orasweet SF along with the […]. […] Additionally, mouse oral dose pharmacokinetics were determined. […]

{"columns": ["COMPOUND", "concentration at 15 min"],
 "data": [
  ["Cc1cc(C2CCCCC2)n(O)c(=O)c1 [Ciclopirox Olamine, reference compound]", "548 ng/mL"]
]}

// provenance: patent US9545413B2
